assay.notes: Partition coefficient, log P of compound at 2:1 1-octanol/water volume ratio by spectrophotometer
Format: physicochemical
Measured logP of individual entries
// no unit, no text: just the number

| smiles.repr | logP |
| --- | --- |
| CCOC(=O)c1nc2ccccn2c1[N+](=O)[O-] | 0.963 |
| O=[N+]([O-])c1cnc2ccccn12 | 0.922 |
| N#Cc1nc2ccccn2c1[N+](=O)[O-] | 0.692 |
| CCOC(=O)c1nc2cccc(C)n2c1[N+](=O)[O-] | 1.3 |
| O=[N+]([O-])c1c(NC2CCCCC2)nc2ccccn12 | 1.5 |

The recorded logP for NC(=O)c1nc2ccccn2c1[N+](=O)[O-] is -0.54

// O=C(O)c1nc2ccccn2c1[N+](=O)[O-] : logP value = -0.038

// recorded logP for Cc1ncc([N+](=O)[O-])n1CCO : 0.115

Value of logP reported for the molecule Cc1cccc2nc(C(N)=O)c([N+](=O)[O-])n12 is 0.695

Lookup result for Cc1cccc2nc(C#N)c([N+](=O)[O-])n12 ; measured logP: 1.08

Entry Cc1cccc2nc(NC3CCCCC3)c([N+](=O)[O-])n12 ; logP = 1.5
